# credit: patent US20220204603A1

target.or.system: T1, biotinylated human Ang2 protein (human, UniProt O15123 19-496, limits assumed, biotinylated (sites not given))
T1 construct: also called hAng2
T1 sequence (looked up): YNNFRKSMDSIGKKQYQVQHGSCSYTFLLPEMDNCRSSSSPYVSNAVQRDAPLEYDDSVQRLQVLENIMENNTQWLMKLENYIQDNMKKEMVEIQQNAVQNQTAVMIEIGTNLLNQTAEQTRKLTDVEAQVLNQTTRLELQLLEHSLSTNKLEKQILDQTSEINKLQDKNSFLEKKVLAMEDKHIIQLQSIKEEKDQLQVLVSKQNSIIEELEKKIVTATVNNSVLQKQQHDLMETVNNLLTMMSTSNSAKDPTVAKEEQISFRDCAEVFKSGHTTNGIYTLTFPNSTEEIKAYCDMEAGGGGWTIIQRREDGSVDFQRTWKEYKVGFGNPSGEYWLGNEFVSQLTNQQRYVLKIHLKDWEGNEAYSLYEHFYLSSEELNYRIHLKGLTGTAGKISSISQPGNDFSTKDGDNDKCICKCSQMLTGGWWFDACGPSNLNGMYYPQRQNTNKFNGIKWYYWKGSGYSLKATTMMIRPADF
method.summary: competition ELISA: antibody preincubated with biotinylated hAng2, binding to coated human Tie2-Fc
assay.readout: IC50 (nM)
Form entry: value (nM) — number only.

See these solved cases before continuing.
No. 41 anti-Ang2 antibody (IgG) (antibody, V domains shown, IgG form: VH cloned into Invivogen pfusess-hchg1, VL into Invivogen pfuse2ss-hclk; also called 2B2) VH: QVQLVESGGGLVQPGGSLRLSCEASGFAFGRYEMNWVRQAPGKGLEWIAYIDTGGGAKVYADSVKGRFTISRDDSKNSLYLQMNSLRAEDTAVYYCTTEGLMNGLHFDMWGQGTMITVSS VL: DIQMTQSPSTLSASVGDRVAITCRASQAISTWLAWYQQKPGKAPKLLIYTASTLESGVPSRFSGSGSGTDFTLTINSLQPDDFATYYCQQLNSYPYTFGGGTKVEIKR : 0.475
No. 8 anti-Ang2 antibody (IgG) (antibody, V domains shown, IgG form: VH cloned into Invivogen pfusess-hchg1, VL into Invivogen pfuse2ss-hclk; also called 3A10) VH: QVQLVESGGGLVKPGGSLRLSCAASGFTFSSYSMNWVRQAPGKGLEWVSSISASDGATYYADSVRGRFTISRDNSRSTLYLQMNSLRAEDTAVYYCAKILAGYSGPMGGMDVWGQGTTVTVSS VL: DIQMTQSPSSLSASVGDRVTITCRASRDISNYLAWYQQKPGKAPKSLIYGASNLQSGVSSQFSGSGSGTDFTLTINSLQPEDSATYYCQQYYSYPLTFGGGTKVDIKR : 0.495
No. 3 anti-Ang2 antibody (IgG) (antibody, V domains shown, IgG form: VH cloned into Invivogen pfusess-hchg1 (heavy chain constant region), VL into Invivogen pfuse2ss-hclk (light chain constant region); Expressed in Expi293F, purified on Protein A; also called 1D10) VH: QMQLVQSGGGLVQPGRSLKLSCAASGFSFDDYAMHWVRQAPGKGLEWVATIKDDGSQTYYVDSVKGRFTISRDNAKSSLFLQMNSLRAEDTAVYYCTTEGLMNGLHFDMWGQGTMVTVSS VL: LVLTQPPSVSGAPGQGVTISCTGSSSNIGAGYDVHWYQQFPGTAPKLLISGNNNRPSGLPDRFSGSKSGTSASLAITGLQAEDEADYYCQSYDSRLGVVFGGGTKLTVLG : 0.491

Next item in the queue.
Exam item: Query: IC50; subject: No. 4 anti-Ang2 antibody (IgG) (antibody, V domains shown, IgG form: VH cloned into Invivogen pfusess-hchg1, VL into Invivogen pfuse2ss-hclk; also called 2D8) VH: QVQLVESGAEVKRPGESLRISCKTSGYSFTSYWIHWVRQMPGKELEWMGSIYPGNSDTRYSPSFQGHVTISADSSSSTAYLQWSSLKASDTAMYYCTTEGLMNGLHFDMWGQGTMVTVSS VL: DIVMTQTPLSLPVTPGEPASISCRSSQSLLHSLGDNYLDWYLQKPGQSPQLLIYLGSKRAAGVPDRFSGSGSGTDFTLKISRVEAEDVGVYYCMQSLQTPPYTFGQGTKLEIKR
Marked response: 0.462
